Some compounds, each annotated with its measured pKp.
Molecular target: Histamine H1 receptor (Cavia porcellus)
Assay: Compound was tested for binding affinity against guinea pig ileum
Assay type: tissue-based
Test readout: pKp

INSERT INTO assay_data (smiles_representation, assay_result) VALUES
  ('NCCc1c[nH]c(-c2cccc(Br)c2)n1', 5.97),
  ('FC(F)(F)c1cccc(-c2nc(CCNC3CC3)c[nH]2)c1', 6.12),
  ('CNCCc1c[nH]c(-c2cccc(Br)c2)n1', 6.17),
  ('CNCCc1c[nH]c(-c2cccc(C(F)(F)F)c2)n1', 6.47),
  ('CN(C)CCc1c[nH]c(-c2cccc(C(F)(F)F)c2)n1', 6.39),
  ('CCNCCc1c[nH]c(-c2cccc(C(F)(F)F)c2)n1', 5.68),
  ('CN(C)CCc1c[nH]c(-c2cccc(Br)c2)n1', 6.2),
  ('NCCc1c[nH]c(-c2cccc(C(F)(F)F)c2)n1', 6.23);
